Measured GI50, listed per entry.
# Test system: CCRF-CEM
# measurement notes: NCI tumour cell line growth inhibition, 48 h
The source made the active and inactive calls. No stated cut-off is given here; in the data, active = GI50 up to about 1.1 µM and inactive = higher.

Reference set, count: 4
{"columns": ["compound", "GI50"],
 "data": [
  ["COc1ccc2c3c1C(=O)CCCC3CO2 (stereo not given)", "> 100 µM (inactive)"],
  ["CCN(CC)CCN1C(=O)C(=O)N(c2cccc3ccccc23)C1=O", "> 10 µM (inactive)"],
  ["C=C1CCC2(C(C)=O)COC1(C)O2 (stereo not given)", "> 100 µM (inactive)"],
  ["Nc1ccccc1CCN1CCN(CCCc2ccccc2)CC1", "46.1 µM (inactive)"]
]}

Consider the compound shown here: COc1nc(NC2OC(COC(C)=O)C(OC(C)=O)C(OC(C)=O)C2OC(C)=O)c(/N=C(\C)C(C)=O)c(=O)n1C (stereo not given) What is its recorded GI50?
> 100 µM (inactive)

Cited source for all entries: ChEMBL document CHEMBL1201862
